Target: Beta-3 Adrenergic Receptor (Homo sapiens (Human))
Sequence (P13945 whole entry, species assumed): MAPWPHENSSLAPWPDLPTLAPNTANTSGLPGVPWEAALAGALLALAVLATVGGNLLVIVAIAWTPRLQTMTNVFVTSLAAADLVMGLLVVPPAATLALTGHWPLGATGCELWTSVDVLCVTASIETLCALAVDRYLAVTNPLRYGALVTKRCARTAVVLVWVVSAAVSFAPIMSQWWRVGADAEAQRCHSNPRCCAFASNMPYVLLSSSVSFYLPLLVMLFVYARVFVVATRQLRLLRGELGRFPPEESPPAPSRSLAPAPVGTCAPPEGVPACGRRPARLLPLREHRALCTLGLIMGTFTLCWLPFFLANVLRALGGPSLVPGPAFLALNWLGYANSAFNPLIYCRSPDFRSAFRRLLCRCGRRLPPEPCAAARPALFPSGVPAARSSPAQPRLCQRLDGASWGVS
Assay: Homogeneous Time-Resolved Fluorescence (HTRF) cAMP antagonist assay, IC50 determination
Assay type: cell-based
Conditions: CHO-K1 cells stably expressing recombinant receptor, isoproterenol at EC90
experimental_readout: pIC50
Just the number, please; pIC50 means minus log10 of the concentration in mol/L.

CNS(=O)(=O)c1cccc(OC[C@@H](O)CNC2COC3(CCN(S(=O)(=O)c4ccc(C(C)(C)C)cc4)CC3)C2)c1 (stereo partly drawn) : 7.88
CCOc1ccc(-c2ccc(CN)cc2)cc1S(=O)(=O)N1CCC2(CC1)C[C@@H](NC[C@H](O)COc1cccc(S(N)(=O)=O)c1)CO2 : 7.75
CN(C)CCCNS(=O)(=O)c1cccc(OC[C@@H](O)CNC2COC3(CCN(S(=O)(=O)c4ccc5ccccc5c4)CC3)C2)c1 (stereo partly drawn) : 6.00
NS(=O)(=O)c1cccc(OC[C@@H](O)CNC2COC3(CCN(S(=O)(=O)c4ccc5ccccc5c4)CC3)C2)c1 (stereo partly drawn) : 7.18
CNS(=O)(=O)c1cccc(OC[C@@H](O)CNC2COC3(CCN(S(=O)(=O)c4cccc(-c5cc[nH]n5)c4)CC3)C2)c1 (stereo partly drawn) : 8.04
CNS(=O)(=O)c1cccc(OC[C@@H](O)CNC2COC3(CCN(S(=O)(=O)c4ccc(C)cc4OC)CC3)C2)c1 (stereo partly drawn) : 7.48
CNS(=O)(=O)c1cccc(OC[C@@H](O)CN[C@H]2COC3(CCN(S(=O)(=O)c4cnc5c(c4)N(C(C)C)CCO5)CC3)C2)c1 : 7.50
CNS(=O)(=O)c1cccc(OC[C@@H](O)CN[C@H]2COC3(CCN(c4nccc(Cc5ccccc5)n4)CC3)C2)c1 : 6.94
CNS(=O)(=O)c1cccc(OC[C@@H](O)CNC2COC3(CCN(S(=O)(=O)c4ccc(N5CCNCC5)nc4)CC3)C2)c1 (stereo partly drawn) : 7.03
CNS(=O)(=O)c1cccc(OC[C@@H](O)CNC2COC3(CCN(S(=O)(=O)c4cccc(-c5ccn(C)c5)c4)CC3)C2)c1 (stereo partly drawn) : 7.58

Lookup: Field request: pIC50 | item: CNS(=O)(=O)c1cccc(OC[C@@H](O)CN[C@H]2COC3(CCN(S(=O)(=O)c4cc5c(nc4OC)OCCN5C)CC3)C2)c1
Found: 7.41

Lookup: Field request: pIC50 | item: CNS(=O)(=O)c1cccc(OC[C@@H](O)CN[C@H]2COC3(CCN(S(=O)(=O)c4ccc5ncccc5c4)CC3)C2)c1
Found: 7.37
